Biological target: T1, human IgE with the M1′ sequence (long form of membrane IgE) expressed on transduced BJAB or Daudi cells (human, UniProt P01854 116-546)
T1 construct: Full-length heavy and light chains of the U266 IgE B cell receptor, retrovirally expressed; also called IgE/M1′; IgE-M1′
T1 sequence (P01854 116-546 I515L limits assumed): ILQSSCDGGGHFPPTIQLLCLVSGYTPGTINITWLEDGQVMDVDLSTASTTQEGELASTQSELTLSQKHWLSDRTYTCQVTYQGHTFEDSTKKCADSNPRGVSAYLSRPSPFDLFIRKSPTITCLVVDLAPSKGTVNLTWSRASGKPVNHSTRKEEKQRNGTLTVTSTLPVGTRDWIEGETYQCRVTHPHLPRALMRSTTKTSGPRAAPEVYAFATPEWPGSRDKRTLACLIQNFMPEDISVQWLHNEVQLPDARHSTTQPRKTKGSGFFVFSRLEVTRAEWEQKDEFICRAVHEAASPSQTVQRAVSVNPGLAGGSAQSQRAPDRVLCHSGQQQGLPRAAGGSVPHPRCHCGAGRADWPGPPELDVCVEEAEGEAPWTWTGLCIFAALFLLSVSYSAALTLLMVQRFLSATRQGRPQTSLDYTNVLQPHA
Experiment: competitive ECL binding on BJAB-IgE/M1′ cells vs biotinylated 26A11 or 47H4, 1st IC50 column
The threshold is 0.02 µM. Values of IC50 beneath it are tagged Criterion met; values meeting or exceeding it are tagged Criterion not met.

As a guide, the following entries are already answered.
humanized anti-IgE/M1′ antibody 47H4.v1 (antibody, V domains shown, direct CDR graft, produced as IgG) VH: EVQLVESGGGLVQPGGSLRLSCAASGFTFSDYGMAWVRQAPGKGLEWVAFISDLAYTIYYADTVTGRFTISRDNSKNTLYLQMNSLRAEDTAVYYCARDNWDAMDYWGQGTLVTVSS VL: DIQMTQSPSSLSASVGDRVTITCRSSQSLVHNNGNTYLHWYQQKPGKAPKLLIYKVSNRFSGVPSRFSGSGSGTDFTLTISSLQPEDFATYYCSQNTLVPWTFGQGTKVEIKR; Criterion met
humanized anti-IgE/M1′ antibody 7A6.v1 (antibody, V domains shown, direct CDR graft, huIgG1; also called 7A6v1 huIgG1; 7A67v1 [sic]) VH: EVQLVESGGGLVQPGGSLRLSCAASGYTFIDYEMHWVRQAPGKGLEWVGAIDPETGTTAYNQKFKGRFTISADTSKNTAYLQMNSLRAEDTAVYYCTRLRPHYDYDNAMDSWGQGTLVTVSS VL: DIQMTQSPSSLSASVGDRVTITCKSSQTLLYSTNQKNYLAWYQQKPGKAPKLLIYWASTRESGVPSRFSGSGSGTDFTLTISSLQPEDFATYYCQQYYSYPYTFGQGTKVEIKR; Criterion not met

Is the reported IC50 for humanized anti-IgE/M1′ antibody 26A11.v6 (antibody, V domains shown, huIgG1; also called 26A11v6 huIgG1) VH: EVQLVESGGGLVQPGGSLRLSCAASGYTFTDYYIMWVRQAPGKGLEWVGDINPNNYDTSYNQKFKGRFTISADTSKNTAYLQMNSLRAEDTAVYYCASKAYWGQGTLVTVSS VL: DIQMTQSPSSLSASVGDRVTITCRSSQDISNYLNWYQQKPGKAPKLLIYSTSRLHSGVPSRFSGSGSGTDFTLTISSLQPEDFATYYCQQGHTLPWTFGQGTKVEIKR strictly below 0.02 µM?
Criterion met

Check if IC50 falls below 0.02 µM for humanized anti-IgE/M1′ antibody 47H4.v2 (antibody, V domains shown, produced as IgG) VH: EVQLVESGGGLVQPGGSLRLSCAASGFTFSDYGMAWVRQAPGKGLEWVAFISDLAYTIYYADTVTGRFTISRDNSKNTLYLQMNSLRAEDTAVYYCARDNWDAMDYWGQGTLVTVSS VL: DIQMTQSPSSLSASVGDRVTITCRSSQSLVHNNANTYLHWYQQKPGKAPKLLIYKVSNRFSGVPSRFSGSGSGTDFTLTISSLQPEDFATYYCSQNTLVPWTFGQGTKVEIKR .
Criterion not met
